target: OATP2B1 (Homo sapiens, UniProt O94956); test: Drug uptake in human OATP2B1 expressed HEK293 cells at 20 uM relative to control cells; assay type: ADME, cell-based; conditions: HEK293 cells expressing human OATP2B1, read-out: FC
Sequence (O94956 whole entry): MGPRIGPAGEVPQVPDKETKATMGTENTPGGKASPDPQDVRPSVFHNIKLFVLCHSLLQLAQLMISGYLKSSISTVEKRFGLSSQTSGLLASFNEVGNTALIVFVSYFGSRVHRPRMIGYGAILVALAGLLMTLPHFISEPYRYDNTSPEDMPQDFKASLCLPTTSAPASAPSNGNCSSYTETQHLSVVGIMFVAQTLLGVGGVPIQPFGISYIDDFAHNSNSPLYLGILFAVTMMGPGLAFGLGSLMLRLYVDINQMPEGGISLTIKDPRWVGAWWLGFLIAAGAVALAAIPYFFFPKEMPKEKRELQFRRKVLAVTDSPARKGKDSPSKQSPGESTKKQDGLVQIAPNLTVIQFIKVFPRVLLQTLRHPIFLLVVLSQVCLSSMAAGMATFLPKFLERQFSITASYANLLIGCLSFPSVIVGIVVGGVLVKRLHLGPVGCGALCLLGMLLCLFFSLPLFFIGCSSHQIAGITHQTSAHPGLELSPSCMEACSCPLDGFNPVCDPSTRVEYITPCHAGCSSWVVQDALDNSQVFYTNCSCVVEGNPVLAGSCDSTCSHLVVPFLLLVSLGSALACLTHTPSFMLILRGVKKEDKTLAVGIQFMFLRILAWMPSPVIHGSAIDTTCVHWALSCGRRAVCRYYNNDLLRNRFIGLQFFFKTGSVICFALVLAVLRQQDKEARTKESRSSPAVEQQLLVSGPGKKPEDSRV
assay-readout: uptake ratio at 20 µM
// no unit, no text: just the number

QUERY: Lab request: please report uptake ratio at 20 µM under test system OATP2B1 (Homo sapiens, UniProt O94956) for Nc1ccc(O)c(C(=O)O)c1
RESULT: 2

====

target: OATP1B3 (Homo sapiens, UniProt Q9NPD5); test: Drug uptake in human OATP1B3 expressed HEK293 cells assessed as net uptake; assay type: ADME, cell-based; settings: HEK293 cells expressing human OATP1B3
Sequence (Q9NPD5 whole entry): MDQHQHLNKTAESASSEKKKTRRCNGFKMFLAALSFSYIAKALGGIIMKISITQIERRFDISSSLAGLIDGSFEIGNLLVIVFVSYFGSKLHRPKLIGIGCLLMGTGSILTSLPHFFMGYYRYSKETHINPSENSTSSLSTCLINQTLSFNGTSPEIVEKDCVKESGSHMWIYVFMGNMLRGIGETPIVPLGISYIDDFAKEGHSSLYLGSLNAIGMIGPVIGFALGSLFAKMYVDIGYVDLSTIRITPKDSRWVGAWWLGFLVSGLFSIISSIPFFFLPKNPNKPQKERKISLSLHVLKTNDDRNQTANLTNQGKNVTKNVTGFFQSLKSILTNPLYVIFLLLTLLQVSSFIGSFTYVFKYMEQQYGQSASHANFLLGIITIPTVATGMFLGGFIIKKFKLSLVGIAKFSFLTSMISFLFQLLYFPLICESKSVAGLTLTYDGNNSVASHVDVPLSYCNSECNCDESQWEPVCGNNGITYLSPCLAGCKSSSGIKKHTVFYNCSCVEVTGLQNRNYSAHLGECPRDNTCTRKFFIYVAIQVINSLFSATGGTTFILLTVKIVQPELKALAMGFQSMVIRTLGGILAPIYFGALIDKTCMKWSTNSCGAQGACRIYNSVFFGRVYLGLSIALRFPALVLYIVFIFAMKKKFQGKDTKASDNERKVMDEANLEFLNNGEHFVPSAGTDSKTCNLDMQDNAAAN
assay-readout: Km (µM)
Expressed in µM, but write only the number.

QUERY: Any idea what its Km is? The molecule is Nc1ccc(O)c(C(=O)O)c1
RESULT: 77.4
